System: 556581-035-R-J1-PDC complex spheroid growth
ASSAY EXPLANATION: Anticancer human tumor 556581-035-R-J1-PDC patient-derived ovarian carcinoma cell line growth inhibition [Asc]
PARTICULARS: second compound 0.316 µM; first compound 0.0316 µM; stronger effect = lower value
Mark Yes for viability, T/C under 80%, No if at or over.

[
  {
    "MOLECULE": "CNC(C)C(=O)NC1CN(S(=O)(=O)c2cccc(S(=O)(=O)N3CCC4CCC(C(=O)NC(c5ccccc5)c5ccccc5)N4C(=O)C(NC(=O)C(C)NC)C3)c2)CCC2CCC(C(=O)NC(c3ccccc3)c3ccccc3)N2C1=O (configuration not stated) + Cc1c(S(C)(=O)=O)c(-c2cc(F)cc(N3CCN(c4ccc(NS(=O)(=O)c5ccc(NC(CCN6CCC(C(=O)OCCCP(=O)(O)O)CC6)CSc6ccccc6)c(S(=O)(=O)C(F)(F)F)c5)cc4)CC3)c2)c(-c2ccc(Cl)cc2)n1C(C)C",
    "TARGET SYSTEM": "556581-035-R-J1-PDC complex spheroid growth",
    "ASSIGNED CATEGORY": "Yes"
  },
  {
    "MOLECULE": "C=CC(=O)N1CCN(c2nc(=O)n(-c3c(C)ccnc3C(C)C)c3nc(-c4c(O)cccc4F)c(F)cc23)C(C)C1 (configuration not stated) + Cc1c(S(C)(=O)=O)c(-c2cc(F)cc(N3CCN(c4ccc(NS(=O)(=O)c5ccc(NC(CCN6CCC(C(=O)OCCCP(=O)(O)O)CC6)CSc6ccccc6)c(S(=O)(=O)C(F)(F)F)c5)cc4)CC3)c2)c(-c2ccc(Cl)cc2)n1C(C)C",
    "TARGET SYSTEM": "556581-035-R-J1-PDC complex spheroid growth",
    "ASSIGNED CATEGORY": "No"
  },
  {
    "MOLECULE": "O=C(c1cc(Cc2n[nH]c(=O)c3ccccc23)ccc1F)N1CCN(C(=O)C2CC2)CC1 + CNC(C)C(=O)NC1CN(S(=O)(=O)c2cccc(S(=O)(=O)N3CCC4CCC(C(=O)NC(c5ccccc5)c5ccccc5)N4C(=O)C(NC(=O)C(C)NC)C3)c2)CCC2CCC(C(=O)NC(c3ccccc3)c3ccccc3)N2C1=O",
    "TARGET SYSTEM": "556581-035-R-J1-PDC complex spheroid growth",
    "ASSIGNED CATEGORY": "No"
  },
  {
    "MOLECULE": "C#Cc1c(F)ccc2cc(O)cc(-c3ncc4c(N5CC6CCC(C5)N6)nc(OCC56CCCN5CC(F)C6)nc4c3F)c12 (configuration not stated) + CNC(C)C(=O)NC1CN(S(=O)(=O)c2cccc(S(=O)(=O)N3CCC4CCC(C(=O)NC(c5ccccc5)c5ccccc5)N4C(=O)C(NC(=O)C(C)NC)C3)c2)CCC2CCC(C(=O)NC(c3ccccc3)c3ccccc3)N2C1=O",
    "TARGET SYSTEM": "556581-035-R-J1-PDC complex spheroid growth",
    "ASSIGNED CATEGORY": "No"
  },
  {
    "MOLECULE": "O=C(c1ccc(F)c(F)c1Nc1ccc(I)cc1F)N1CC(O)([C@@H]2CCCCN2)C1 + CNC(C)C(=O)NC1CN(S(=O)(=O)c2cccc(S(=O)(=O)N3CCC4CCC(C(=O)NC(c5ccccc5)c5ccccc5)N4C(=O)C(NC(=O)C(C)NC)C3)c2)CCC2CCC(C(=O)NC(c3ccccc3)c3ccccc3)N2C1=O",
    "TARGET SYSTEM": "556581-035-R-J1-PDC complex spheroid growth",
    "ASSIGNED CATEGORY": "No"
  },
  {
    "MOLECULE": "COc1c(OCCCN2CCOCC2)ccc2c3n(c(=NC(=O)c4cnc(N)nc4)nc12)CCN3 + CNC(C)C(=O)NC1CN(S(=O)(=O)c2cccc(S(=O)(=O)N3CCC4CCC(C(=O)NC(c5ccccc5)c5ccccc5)N4C(=O)C(NC(=O)C(C)NC)C3)c2)CCC2CCC(C(=O)NC(c3ccccc3)c3ccccc3)N2C1=O",
    "TARGET SYSTEM": "556581-035-R-J1-PDC complex spheroid growth",
    "ASSIGNED CATEGORY": "Yes"
  },
  {
    "MOLECULE": "CCN1CCN(Cc2ccc(Nc3ncc(F)c(-c4cc(F)c5nc(C)n(C(C)C)c5c4)n3)nc2)CC1 + Cc1c(S(C)(=O)=O)c(-c2cc(F)cc(N3CCN(c4ccc(NS(=O)(=O)c5ccc(NC(CCN6CCC(C(=O)OCCCP(=O)(O)O)CC6)CSc6ccccc6)c(S(=O)(=O)C(F)(F)F)c5)cc4)CC3)c2)c(-c2ccc(Cl)cc2)n1C(C)C",
    "TARGET SYSTEM": "556581-035-R-J1-PDC complex spheroid growth",
    "ASSIGNED CATEGORY": "No"
  }
]

----------
Tested on: 556581-035-R-J1-PDC complex spheroid growth
ASSAY EXPLANATION: Anticancer human tumor 556581-035-R-J1-PDC cell line growth inhibition [Asc];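 note: spheroids exposed to agents for 7 days before viability read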
PARTICULARS: curve of first compound; second compound 0.0949 µM
pIC50: −log10 of the molar value.

[
  {
    "MOLECULE": "O=C(c1cc(Cc2n[nH]c(=O)c3ccccc23)ccc1F)N1CCN(C(=O)C2CC2)CC1 + CCN1C(C(=O)NC23CCC(C(=O)O)(CC2)CC3)C(c2cccc(Cl)c2F)C2(C(=O)Nc3cc(Cl)ccc32)C12CCCCC2",
    "INEQUALITY SYMBOL": "<",
    "pIC50": 5.00
  },
  {
    "MOLECULE": "O=C(c1ccc(F)c(F)c1Nc1ccc(I)cc1F)N1CC(O)([C@@H]2CCCCN2)C1 + CCN1C(C(=O)NC23CCC(C(=O)O)(CC2)CC3)C(c2cccc(Cl)c2F)C2(C(=O)Nc3cc(Cl)ccc32)C12CCCCC2",
    "INEQUALITY SYMBOL": "=",
    "pIC50": 6.68
  },
  {
    "MOLECULE": "C=C(F)C(=O)N1CCN(c2nc(OCC3CCCN3C)nc3c2CCN(c2cccc4cccc(Cl)c24)C3)CC1CC#N (centres undefined) + CCN1C(C(=O)NC23CCC(C(=O)O)(CC2)CC3)C(c2cccc(Cl)c2F)C2(C(=O)Nc3cc(Cl)ccc32)C12CCCCC2",
    "INEQUALITY SYMBOL": "=",
    "pIC50": 5.41
  },
  {
    "MOLECULE": "C=CC(=O)N1CCN(c2nc(=O)n(-c3c(C)ccnc3C(C)C)c3nc(-c4c(O)cccc4F)c(F)cc23)C(C)C1 (centres undefined) + CCN1C(C(=O)NC23CCC(C(=O)O)(CC2)CC3)C(c2cccc(Cl)c2F)C2(C(=O)Nc3cc(Cl)ccc32)C12CCCCC2",
    "INEQUALITY SYMBOL": "<",
    "pIC50": 5.00
  }
]

----------
Tested on: 556581-035-R-J1-PDC complex spheroid growth
ASSAY EXPLANATION: Anticancer human tumor 556581-035-R-J1-PDC cell line growth inhibition [Asc];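 note: spheroids exposed to agents for 7 days before viability read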
PARTICULARS: second compound 0.3 µM; first compound 0.01 µM; stronger effect = lower value
Overview of reported viability, T/C across a group of compounds:
ASSAY READOUT: viability, T/C

[
  {
    "COMPOUND": "Cn1ncnc1[C@H]1c2n[nH]c(=O)c3cc(F)cc(c23)N[C@@H]1c1ccc(F)cc1 + CCN1C(C(=O)NC23CCC(C(=O)O)(CC2)CC3)C(c2cccc(Cl)c2F)C2(C(=O)Nc3cc(Cl)ccc32)C12CCCCC2",
    "TARGET SYSTEM": "556581-035-R-J1-PDC complex spheroid growth",
    "ASSAY READOUT": "viability, T/C",
    "RECORDED MEASUREMENT": "107%"
  },
  {
    "COMPOUND": "CCN1CCN(Cc2ccc(Nc3ncc(F)c(-c4cc(F)c5nc(C)n(C(C)C)c5c4)n3)nc2)CC1 + CCN1C(C(=O)NC23CCC(C(=O)O)(CC2)CC3)C(c2cccc(Cl)c2F)C2(C(=O)Nc3cc(Cl)ccc32)C12CCCCC2",
    "TARGET SYSTEM": "556581-035-R-J1-PDC complex spheroid growth",
    "ASSAY READOUT": "viability, T/C",
    "RECORDED MEASUREMENT": "82.5%"
  },
  {
    "COMPOUND": "NC1CCC(NC2CC2c2ccccc2)CC1 (stereo unspecified) + CCN1C(C(=O)NC23CCC(C(=O)O)(CC2)CC3)C(c2cccc(Cl)c2F)C2(C(=O)Nc3cc(Cl)ccc32)C12CCCCC2",
    "TARGET SYSTEM": "556581-035-R-J1-PDC complex spheroid growth",
    "ASSAY READOUT": "viability, T/C",
    "RECORDED MEASUREMENT": "100%"
  },
  {
    "COMPOUND": "CNC(C)C(=O)NC1CN(S(=O)(=O)c2cccc(S(=O)(=O)N3CCC4CCC(C(=O)NC(c5ccccc5)c5ccccc5)N4C(=O)C(NC(=O)C(C)NC)C3)c2)CCC2CCC(C(=O)NC(c3ccccc3)c3ccccc3)N2C1=O (stereo unspecified) + CCN1C(C(=O)NC23CCC(C(=O)O)(CC2)CC3)C(c2cccc(Cl)c2F)C2(C(=O)Nc3cc(Cl)ccc32)C12CCCCC2",
    "TARGET SYSTEM": "556581-035-R-J1-PDC complex spheroid growth",
    "ASSAY READOUT": "viability, T/C",
    "RECORDED MEASUREMENT": "97.5%"
  },
  {
    "COMPOUND": "O=C(c1ccc(F)c(F)c1Nc1ccc(I)cc1F)N1CC(O)([C@@H]2CCCCN2)C1 + CCN1C(C(=O)NC23CCC(C(=O)O)(CC2)CC3)C(c2cccc(Cl)c2F)C2(C(=O)Nc3cc(Cl)ccc32)C12CCCCC2",
    "TARGET SYSTEM": "556581-035-R-J1-PDC complex spheroid growth",
    "ASSAY READOUT": "viability, T/C",
    "RECORDED MEASUREMENT": "104%"
  },
  {
    "COMPOUND": "COc1c(OCCCN2CCOCC2)ccc2c3n(c(=NC(=O)c4cnc(N)nc4)nc12)CCN3 + CCN1C(C(=O)NC23CCC(C(=O)O)(CC2)CC3)C(c2cccc(Cl)c2F)C2(C(=O)Nc3cc(Cl)ccc32)C12CCCCC2",
    "TARGET SYSTEM": "556581-035-R-J1-PDC complex spheroid growth",
    "ASSAY READOUT": "viability, T/C",
    "RECORDED MEASUREMENT": "70%"
  }
]

Origin of measurements: PubChem BioAssay AID1963450
